- assay.info: MTT assay, cytotoxic effect on WI38
- Type: cell-based
- details: human, WI38 cells (human fibroblast cell line)
- Experimental: M10, WI38, SKBR3, and MDA-MB-231 cells (1×10^5 cells/ml) dispensed in 96-well plates were incubated with vehicle or test compounds (Q2-3) for 24 h or 72 h in corresponding basal medium in a 5% CO2 incubator. […] The absorbance at 570 nm (A570) was measured using a multiwall scanning spectrophotometer. […]
parameter.measured: viability at 2 µM

>  <molecule>
COC(=O)/C=C/c1cc(O)c2c(c1)C(C(=O)OC)C(c1ccc(O)c(O)c1)O2 (stereo not shown)

>  <experimental.value>
≥ 80%

$$$$

###

- assay.info: MTT assay, cytotoxic effect on M10
- Type: cell-based
- details: human, M10 cells (normal human mammary epithelial cell line)
parameter.measured: viability at 2 µM

>  <molecule>
COC(=O)/C=C/c1cc(O)c2c(c1)C(C(=O)OC)C(c1ccc(O)c(O)c1)O2 (stereo not shown) [Q2-3]

>  <parameter.measured>
viability at 2 µM

>  <experimental.value>
≥ 80%

$$$$

These entries and their values trace back to patent US11207289B2.
